Overview of reported abundance fitness across a group of variants:
B1: Syntaxin-binding protein 4, residues 493 to 538; numbered along this chain, Q6ZWJ1 (parent)
chain: LDMDCLPYGWEEAYTADGIKYFINHVTQTTSWIHPVMSVLNLSRSE

# Variants of: B1
# experiment: abundance fitness (aPCA) (normalised: wild type 0, dead -1); higher = more abundant; growth selection in yeast, the domain comes from the species named
# measurement.context: Homo sapiens
Form: value (number only, do not type unit).

Worked examples follow.
W32R: -0.408
L1M: 0.148
K20H: -0.444

// next item, abundance fitness requested
Query block: Item `E46N` has what recorded abundance fitness?
Result block: -0.139
